- test name: Drug uptake in pulmonary tuberculosis patient at 25 mg/kg, po once daily for 7 days by liquid chromatography-MS/MS analysis
- Assay type: ADME, organism-based
- Set-up: dose 25 mg/kg, route oral
- condition notes: human, in vivo, read-out: Drug uptake
observable: concentration at 168 h (ng/mL)
Give just the number in ng/mL; leave the unit off.

Ask: Query: concentration at 168 h; subject: COc1nc2ccc(Br)cc2cc1[C@@H](c1ccccc1)[C@@](O)(CCN(C)C)c1cccc2ccccc12 [BEDAQUILINE]
Reply: 104
